B1: tRNA (parent)
chain: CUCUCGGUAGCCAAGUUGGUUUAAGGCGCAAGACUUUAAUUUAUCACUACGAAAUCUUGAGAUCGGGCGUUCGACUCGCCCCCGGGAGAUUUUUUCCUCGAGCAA

- Variants of: B1
- EXPERIMENT_DESCRIPTION: nonsense suppression (GFP-seq) (ratio to wild type); higher = more function; SUP4oc tRNA, yeast GFP reporter sort-seq
Variants at the floor of the assay were thinned out.
Given measured nonsense suppression, output Criterion met if it is greater than or equal to 0.04 and Criterion not met if not.

* C81G A87G | Criterion met
* C81U G84A | Criterion met
* U2C U17A | Criterion met
* A54C U63G | Criterion met
* U16G U57A C64U G66U G69A | Criterion not met
* A23U A31G | Criterion not met
* C29U A30G A54C C75A | Criterion not met

Origin of the recorded values: the RNAGym collection of RNA variant scans (doi:10.1101/gad.245936.114)
